Assay target: UniProtKB Q9BQF6
Sequence (Q9BQF6 whole entry): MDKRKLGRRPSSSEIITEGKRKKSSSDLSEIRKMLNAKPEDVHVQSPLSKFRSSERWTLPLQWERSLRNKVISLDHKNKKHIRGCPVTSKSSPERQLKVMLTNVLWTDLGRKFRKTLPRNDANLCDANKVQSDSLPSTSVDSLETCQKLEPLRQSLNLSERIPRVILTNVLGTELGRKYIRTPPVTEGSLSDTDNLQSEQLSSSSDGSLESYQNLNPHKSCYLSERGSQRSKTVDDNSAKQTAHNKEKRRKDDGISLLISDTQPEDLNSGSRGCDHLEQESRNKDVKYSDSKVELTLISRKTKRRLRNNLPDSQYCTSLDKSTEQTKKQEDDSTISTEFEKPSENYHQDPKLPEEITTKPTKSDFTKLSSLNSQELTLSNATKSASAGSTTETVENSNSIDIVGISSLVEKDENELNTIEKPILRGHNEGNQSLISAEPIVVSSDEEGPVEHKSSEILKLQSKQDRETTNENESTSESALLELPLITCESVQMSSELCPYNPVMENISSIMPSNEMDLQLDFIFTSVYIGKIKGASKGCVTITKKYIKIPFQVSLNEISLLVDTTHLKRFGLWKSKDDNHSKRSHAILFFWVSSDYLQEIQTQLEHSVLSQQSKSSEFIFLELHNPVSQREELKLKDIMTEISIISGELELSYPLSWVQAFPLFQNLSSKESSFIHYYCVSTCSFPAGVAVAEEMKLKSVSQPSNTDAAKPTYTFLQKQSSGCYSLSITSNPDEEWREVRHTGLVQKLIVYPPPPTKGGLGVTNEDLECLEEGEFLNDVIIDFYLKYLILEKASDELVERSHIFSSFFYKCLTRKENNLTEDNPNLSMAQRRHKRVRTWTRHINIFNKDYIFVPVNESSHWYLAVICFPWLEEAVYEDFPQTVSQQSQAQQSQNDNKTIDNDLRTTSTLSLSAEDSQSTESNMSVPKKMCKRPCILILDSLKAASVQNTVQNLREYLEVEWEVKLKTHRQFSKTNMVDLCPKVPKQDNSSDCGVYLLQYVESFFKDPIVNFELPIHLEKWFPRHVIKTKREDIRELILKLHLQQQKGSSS
Type: functional
Calls of active or inactive are those of the source.
Each entry below carries its reported IC50.

[
  {
    "Structure notation": "O=S(=O)(Nc1ccc(-c2nc3cccnc3s2)cc1)c1ccc(Cl)s1",
    "Assay target": "UniProtKB Q9BQF6",
    "Measured value": "18.8 µM (active)"
  }
]

Read the entry "O=C(NC1(O)C(=O)c2ccccc2C1=O)c1ccc(C(F)(F)F)cc1" and write its reported IC50.
3.51 µM (active)

Quickly give me recorded IC50 for "COc1ccc2nc(Nc3nc4cc5c(cc4s3)OCCO5)sc2c1"
5.81 µM (active)

Could you please provide reported IC50 for "CCN(c1ccccc1)c1cc2ccccc2c(=O)[nH]1" ? Thanks!
3.37 µM (active)

Please give the documented IC50 of "Cc1c(NC(=O)c2ccc(NC(=O)C3CC3)cc2)cccc1C(=O)O"
6.21 µM (active)

Provide one value: measured IC50 of "Cc1ccc2oc(-c3ccco3)nc2c1"
5.87 µM (active)

Please give measured IC50 of the following entry: "CN1C(=O)S/C(=C/c2ccc(OCc3cccc(C(=O)O)c3)cc2)C1=O"
6.05 µM (active)
